// provenance: the RepoRT retention time repository (doi:10.1016/j.aca.2011.12.065)

assay: RP, Waters ACQUITY UPLC BEH C18, 100 × 2.1 mm, 1.7 µm; A: water + 0.1% formic acid, pH 3; B: 80% acetonitrile + 20% acetone + 0.1% formic acid, pH 3; gradient (min/%B) 0/0 6/100
condition parameters: stereoisomer not certain
Structures can show the parent of a compound that is named as a salt.
property: LC retention time (min)
Hi! Could you send only the number? It should be in min, unit omitted.

// LC retention time value for OCC1OC(OC2(CO)OC(CO)C(O)C2O)C(O)C(O)C1O (stereo not drawn) : 0.661

// LC retention time value for CC12CCC(=O)C=C1CCC1C2C(=O)CC2(C)C1CCC2(O)C(=O)CO (stereo not drawn) : 2.61

// LC retention time value for NCCS(=O)(=O)O : 0.556

// LC retention time value for O=C([O-])c1cc(=O)[nH]c(=O)[nH]1 : 0.719

// LC retention time value for NC(=O)c1cccnc1 [nicotinamide] : 0.969

// LC retention time value for Cn1c(=O)c2c(ncn2C)n(C)c1=O : 1.65

// LC retention time value for NC(CCCC(=O)O)C(=O)O (racemic) : 0.657

// LC retention time value for CC(C)CC(NC(=O)C1CCC(=O)N1)C(=O)O (stereo not drawn) : 1.89

// LC retention time value for CC(C)C(N)C(=O)O (stereo not drawn) : 0.798

// LC retention time value for Cc1cn(C2OC(CO)C(O)C2O)c(=O)nc1N (stereo not drawn) : 1.28

// LC retention time value for CCC(C)C1NC(=O)C(C(C)C)NC1=O (stereo not drawn) : 2.31

// LC retention time value for O=C1CCCCN1 : 1.39

// LC retention time value for NC(CCCCNC(=O)CO)C(=O)O (stereo not drawn) [GALA ((2s)-2-amino-6-(2-hydroxy-acetylamino)-hexanoic acid)] : 0.676

// LC retention time value for Nc1ccn(C2OC(CO)C(O)C2O)c(=O)n1 (stereo not drawn) : 0.749

// LC retention time value for CCCC(=O)C(=O)O : 1.62

// LC retention time value for NC(Cc1ccccc1)C(=O)NC(CC(=O)O)C(=O)O (stereo not drawn) : 1.54

// LC retention time value for CC(=O)NC(CC(=O)O)C(=O)NC(CCC(=O)O)C(=O)O (stereo not drawn) : 1.28

// LC retention time value for CC(C)C1NC(=O)C(CCC(=O)O)NC1=O (stereo not drawn) : 1.5

// LC retention time value for CC(C)CC1NC(=O)C(CC(=O)O)NC1=O (stereo not drawn) : 1.68

// LC retention time value for CC12CCc3occc3C1CCC13CC(CCC12)C(O)(CO)C3 (stereo not drawn) [Cafestol (10x dilute)] : 3.19

// LC retention time value for O=C(O)CCCO [gamma-hydroxybutyric acid] : 1.07

// LC retention time value for CC(CCC(=O)NCC(=O)O)C1CCC2C3CCC4CC(O)CCC4(C)C3CCC12C (stereo not drawn) : 3.56

// LC retention time value for O=C(O)C(O)Cc1ccccc1 (stereo not drawn) : 2.08

// LC retention time value for CC(C)CC(=O)C(=O)O : 1.99

// LC retention time value for Nc1nc2c(ncn2C2OC(CO)C(O)C2O)c(=O)[nH]1 (stereo not drawn) : 1.26

// LC retention time value for NC(CCCCn1c(C=O)ccc1CO)C(=O)O (stereo not drawn) : 1.43

// LC retention time value for CCCCCCCCCCCCCCCC(=O)OCC(COP(=O)([O-])OCC[N+](C)(C)C)OC(=O)CCCC(=O)O (stereo not drawn) : 4.52

// LC retention time value for CCC(C)(O)C(=O)O (stereo not drawn) [2-Hydroxy-2-methylbutyric acid] : 1.63

// LC retention time value for CC(C)C1NC(=O)C(Cc2ccccc2)NC1=O (stereo not drawn) : 2.39

// LC retention time value for CC(CCC(=O)NCCS(=O)(=O)O)C1CCC2C3C(O)CC4CC(O)CCC4(C)C3CC(O)C12C (stereo not drawn) : 2.85

// LC retention time value for CC(C)CC(NC(=O)C(N)CC(=O)O)C(=O)O (stereo not drawn) : 0.6

// LC retention time value for O=C(O)Cc1ccccc1 : 1.19

// LC retention time value for Nc1ccc(OS(=O)(=O)O)cc1 [4-Aminophenyl hydrogen sulfate] : 0.641

* * *

assay: RP, Waters ACQUITY UPLC HSS T3, 100 × 2.1 mm, 1.8 µm; A: water + 0.1% formic acid, pH 3; B: 30% methanol + 70% acetonitrile + 0.1% formic acid, pH 3; gradient (min/%B) 0.0/5 1.0/8 2.0/15 3.0/40 4.0/70 4.5/100 5.0/100 6.4/100 6.6/5.0 6.8/5.0 7.0/5.0
condition parameters: stereoisomer not certain
property: LC retention time
Quote the value and follow it with the unit of measurement.

// LC retention time value for CCCCCCCCC=CCCCCCCCC(=O)OCC(O)COP(=O)([O-])OCC[N+](C)(C)C (stereo not drawn) [lysoPC(18:1(9Z)/0:0)] : 4.72 min

// LC retention time value for NCCCC(=O)O [gamma-aminobutyric acid] : 0.491 min

// LC retention time value for Cn1cnc2[nH]c(=O)[nH]c(=O)c21 [7-methylxanthine] : 1.25 min

* * *

For each record, write down the corresponding log10(LC retention time).
assay: RP, Waters ACQUITY UPLC HSS T3, 100 × 2.1 mm, 1.8 µm; A: water + 0.1% formic acid, pH 3; B: 30% methanol + 70% acetonitrile + 0.1% formic acid, pH 3; gradient (min/%B) 0.0/5 1.0/8 2.0/15 3.0/40 4.0/70 4.5/100 5.0/100 6.4/100 6.6/5.0 6.8/5.0 7.0/5.0
condition parameters: stereoisomer not certain
Counter-ions that a name gives are not always drawn.
Scale: log10; quantity: LC retention time; unit before log: min

// log10(LC retention time) value for NCCCCC(N)C(=O)O (stereo unspecified) : -0.39

// log10(LC retention time) value for O=C(O)CNC(=O)c1ccccc1 : 0.49

// log10(LC retention time) value for CC(C)(O)CC(=O)O [3-hydroxy-3-methyl butanoic acid] : 0.21

// log10(LC retention time) value for O=c1[nH]c(=O)c2[nH]c(=O)[nH]c2[nH]1 : -0.21

// log10(LC retention time) value for CC12C=Cc3occc3C1CCC13CC(CCC12)C(O)(CO)C3 (stereo unspecified) : 0.58

// log10(LC retention time) value for CN1C(=O)CCC1c1cccnc1 (single isomer, unassigned; (-)) [(-)-Cotinine] : -0.10

// log10(LC retention time) value for O=c1c(O)c(-c2ccc(O)cc2)oc2cc(O)cc(O)c12 : 0.59

// log10(LC retention time) value for NC(CCCCNC(=O)CO)C(=O)O (stereo unspecified) [GALA ((2s)-2-amino-6-(2-hydroxy-acetylamino)-hexanoic acid)] : -0.28

// log10(LC retention time) value for CC(C)(CO)C(O)C(=O)NCCC(=O)NCCSSCCNC(=O)CCNC(=O)C(O)C(C)(C)CO (stereo unspecified) : 0.54

// log10(LC retention time) value for Cn1cnc(C[C@H](N)C(=O)O)c1 : -0.37

// log10(LC retention time) value for CCCCCCCC(=O)OC1OC(C(=O)O)C(O)C(O)C1O (stereo unspecified) [octanoic acid glucuronide] : 0.59

// log10(LC retention time) value for NC(CCCCNCC(=O)O)C(=O)O (stereo unspecified) : -0.28

// log10(LC retention time) value for CC(CCC(=O)O)C1CCC2C3C(O)CC4CC(O)CCC4(C)C3CC(O)C12C (stereo unspecified) : 0.65

// log10(LC retention time) value for Cn1c(=N)ccn(C2OC(CO)C(O)C2O)c1=O (stereo unspecified) [3-methylcytidine methosulfate] : -0.21

// log10(LC retention time) value for NCCc1c[nH]c2ccccc12 [tryptamine hydrochloride] : 0.42

// log10(LC retention time) value for Nc1ccn(C2OC(CO)C(O)C2O)c(=O)n1 (stereo unspecified) : -0.27

// log10(LC retention time) value for O=C(O)CCCCCC(=O)O : 0.50

// log10(LC retention time) value for Cn1c(=O)[nH]c2[nH]c(=O)[nH]c(=O)c21 : 0.03

// log10(LC retention time) value for Nc1ccc(C(=O)NCC(=O)O)cc1 : 0.08

// log10(LC retention time) value for Cn1cnc2c1c(=O)[nH]c(=O)n2C : 0.33

// log10(LC retention time) value for CC(=O)Nc1ccc(C(=O)O)cc1 : 0.51

// log10(LC retention time) value for O=C(O)CNC(=O)Cc1ccccc1 : 0.53

// log10(LC retention time) value for NC(CCCC(=O)O)C(=O)O (racemic) : -0.29

// log10(LC retention time) value for CCCCCCCCC=CCCCCCCCC(N)=O [oleamide] : 0.68

// log10(LC retention time) value for O=c1[nH]cnc2nc[nH]c12 : -0.15

// log10(LC retention time) value for O=C(O)c1ccc2ccccc2n1 : 0.46

// log10(LC retention time) value for O=C(OC1OC(C(=O)O)C(O)C(O)C1O)c1c[nH]c2ccccc12 (stereo unspecified) [indole-3-carboxylic acid glucuronide] : 0.53

// log10(LC retention time) value for O=Cc1ccc(O)cc1 [4-hydroxybenzaldehyde] : 0.52

// log10(LC retention time) value for CNC(C)(C)C(=O)O : -0.27

// log10(LC retention time) value for Cc1cc2nc3c(=O)[nH]c(=O)nc-3n(CC(O)C(O)C(O)CO)c2cc1C (stereo unspecified) : 0.53

// log10(LC retention time) value for Cn1cnc2c(ncn2C2OC(CO)C(O)C2O)c1=N (stereo unspecified) : 0.21

// log10(LC retention time) value for C[N+]1(C)CCCC1C(=O)[O-] (stereo unspecified) : -0.27

// log10(LC retention time) value for OCC(O)C(O)C(O)C(O)CO (stereo not drawn) [d(-)-mannitol] : -0.32

// log10(LC retention time) value for NC(CCCC(N)C(=O)O)C(=O)O (stereo unspecified) : -0.36

// log10(LC retention time) value for Nc1ccn(C2OC(CO)C(O)C2O)c(=S)n1 (stereo unspecified) [2-thiocytidine dihydrate] : -0.21

// log10(LC retention time) value for O=C(O)C1OC(Oc2ccccc2O)C(O)C(O)C1O (stereo unspecified) [Pyrocatechol glucuronide] : 0.45
